molecular target: membrane-bound tripeptidylpeptidase II (Rattus norvegicus, UniProt Q64560); test: Measurement of the activity of membrane-bound tripeptidylpeptidase (release of Amc from A-AP-Amc, fluorimetry); conditions: Ki, apparent dissociation constant calculated from the 50% inhibitory concentration and the KM of the substrate (23 μM); rat brain membranes, 50 μM A-AP-Amc
Sequence (Q64560 whole entry): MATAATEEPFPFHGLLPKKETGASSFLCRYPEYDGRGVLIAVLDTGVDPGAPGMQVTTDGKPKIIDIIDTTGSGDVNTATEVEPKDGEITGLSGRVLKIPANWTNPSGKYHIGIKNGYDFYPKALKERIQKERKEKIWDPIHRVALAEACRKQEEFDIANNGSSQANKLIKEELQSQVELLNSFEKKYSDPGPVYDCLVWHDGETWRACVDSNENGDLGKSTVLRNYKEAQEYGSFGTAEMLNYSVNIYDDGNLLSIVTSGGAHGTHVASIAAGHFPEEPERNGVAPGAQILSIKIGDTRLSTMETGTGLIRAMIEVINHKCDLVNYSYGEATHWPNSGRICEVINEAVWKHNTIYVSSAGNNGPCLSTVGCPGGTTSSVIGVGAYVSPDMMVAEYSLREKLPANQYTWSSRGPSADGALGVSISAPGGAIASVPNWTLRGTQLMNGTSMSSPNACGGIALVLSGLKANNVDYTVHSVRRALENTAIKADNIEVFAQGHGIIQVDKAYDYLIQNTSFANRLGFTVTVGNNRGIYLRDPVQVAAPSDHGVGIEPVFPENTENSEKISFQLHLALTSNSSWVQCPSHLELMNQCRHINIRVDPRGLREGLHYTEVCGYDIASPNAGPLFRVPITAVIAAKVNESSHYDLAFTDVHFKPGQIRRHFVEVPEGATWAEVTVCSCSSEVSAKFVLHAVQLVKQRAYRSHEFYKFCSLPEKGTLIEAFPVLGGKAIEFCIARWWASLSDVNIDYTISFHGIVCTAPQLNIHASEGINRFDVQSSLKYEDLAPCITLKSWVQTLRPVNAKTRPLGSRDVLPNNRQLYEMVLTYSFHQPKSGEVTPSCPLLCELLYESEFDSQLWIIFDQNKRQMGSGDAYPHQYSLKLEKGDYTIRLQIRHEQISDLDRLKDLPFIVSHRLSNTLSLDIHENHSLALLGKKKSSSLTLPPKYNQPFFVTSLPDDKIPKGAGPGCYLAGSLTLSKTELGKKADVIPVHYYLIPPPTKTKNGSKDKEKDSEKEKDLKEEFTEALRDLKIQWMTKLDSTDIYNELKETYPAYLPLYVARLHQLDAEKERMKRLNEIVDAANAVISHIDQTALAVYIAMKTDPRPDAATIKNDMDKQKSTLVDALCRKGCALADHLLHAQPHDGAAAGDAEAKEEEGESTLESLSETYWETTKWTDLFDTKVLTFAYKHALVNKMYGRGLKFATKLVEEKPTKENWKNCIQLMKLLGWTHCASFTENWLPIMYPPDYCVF
Counter-ions that a name gives are not always drawn. Where a SMILES comes first, the peptide text is derived from it. [ ]: non-standard residue; d: D form. The star is where a group is joined. Oic = O=C(O)[C@@H]1C[C@@H]2CCCC[C@@H]2N1; Abu = CC[C@H](N)C(=O)O; NHBu = CCCCN*
assay.endpoint: Ki (nM)

[
  {
    "molecule": "CCCCNC(=O)[C@@H]1C[C@@H]2CCCC[C@@H]2N1C(=O)[C@@H](N)CC [Example 22] (H-[Abu]-[Oic]-NHBu)",
    "assay.endpoint": "Ki",
    "unit.tag": "nM",
    "observed.result": 560
  },
  {
    "molecule": "CCCCNC(=O)C1Cc2cc(OC)ccc2N1C(=O)[C@@H](N)CC (mixture of isomers) [Example 18]",
    "assay.endpoint": "Ki",
    "unit.tag": "nM",
    "observed.result": 8
  },
  {
    "molecule": "CCCCNC(=O)C1Cc2cc(C)ccc2N1C(=O)[C@@H](N)CC (mixture of isomers) [Example 35, Oxalate]",
    "assay.endpoint": "Ki",
    "unit.tag": "nM",
    "observed.result": 22.6
  }
]

These entries and their values trace back to patent US6403561B1.
